- Tested On: human N-type Ca channel (Homo sapiens)
- Experiment: Measurement of electrophysiological response (QPatch)
- Conditions: Pulse = 15; concentration range 0.01-1 μM
Recorded Metric: N Type IC50 Data Qpatch Pulse = 15

{"Molecule": "COc1ncccc1-c1nc(C2CC(C)(C)OC(C)(C)C2)cn1-c1cc(F)cc(F)c1 [Cpd 72]", "Tested On": "human N-type Ca channel (Homo sapiens)", "Recorded Metric": "N Type IC50 Data Qpatch Pulse = 15", "Test Value": "poor fit"}
{"Molecule": "COc1ncccc1-c1nc(C2CC(C)(C)OC(C)(C)C2)cn1-c1cc(F)cc(C#N)c1 [Cpd 73]", "Tested On": "human N-type Ca channel (Homo sapiens)", "Recorded Metric": "N Type IC50 Data Qpatch Pulse = 15", "Test Value": "poor fit"}
{"Molecule": "COc1ncccc1-c1nc(C2CC(C)(C)OC(C)(C)C2)cn1-c1cc(F)ccc1F [Cpd 71]", "Tested On": "human N-type Ca channel (Homo sapiens)", "Recorded Metric": "N Type IC50 Data Qpatch Pulse = 15", "Test Value": "poor fit"}

====

- Tested On: human N-type Ca channel (Homo sapiens, UniProt Q00975)
- Sequence (Q00975 whole entry): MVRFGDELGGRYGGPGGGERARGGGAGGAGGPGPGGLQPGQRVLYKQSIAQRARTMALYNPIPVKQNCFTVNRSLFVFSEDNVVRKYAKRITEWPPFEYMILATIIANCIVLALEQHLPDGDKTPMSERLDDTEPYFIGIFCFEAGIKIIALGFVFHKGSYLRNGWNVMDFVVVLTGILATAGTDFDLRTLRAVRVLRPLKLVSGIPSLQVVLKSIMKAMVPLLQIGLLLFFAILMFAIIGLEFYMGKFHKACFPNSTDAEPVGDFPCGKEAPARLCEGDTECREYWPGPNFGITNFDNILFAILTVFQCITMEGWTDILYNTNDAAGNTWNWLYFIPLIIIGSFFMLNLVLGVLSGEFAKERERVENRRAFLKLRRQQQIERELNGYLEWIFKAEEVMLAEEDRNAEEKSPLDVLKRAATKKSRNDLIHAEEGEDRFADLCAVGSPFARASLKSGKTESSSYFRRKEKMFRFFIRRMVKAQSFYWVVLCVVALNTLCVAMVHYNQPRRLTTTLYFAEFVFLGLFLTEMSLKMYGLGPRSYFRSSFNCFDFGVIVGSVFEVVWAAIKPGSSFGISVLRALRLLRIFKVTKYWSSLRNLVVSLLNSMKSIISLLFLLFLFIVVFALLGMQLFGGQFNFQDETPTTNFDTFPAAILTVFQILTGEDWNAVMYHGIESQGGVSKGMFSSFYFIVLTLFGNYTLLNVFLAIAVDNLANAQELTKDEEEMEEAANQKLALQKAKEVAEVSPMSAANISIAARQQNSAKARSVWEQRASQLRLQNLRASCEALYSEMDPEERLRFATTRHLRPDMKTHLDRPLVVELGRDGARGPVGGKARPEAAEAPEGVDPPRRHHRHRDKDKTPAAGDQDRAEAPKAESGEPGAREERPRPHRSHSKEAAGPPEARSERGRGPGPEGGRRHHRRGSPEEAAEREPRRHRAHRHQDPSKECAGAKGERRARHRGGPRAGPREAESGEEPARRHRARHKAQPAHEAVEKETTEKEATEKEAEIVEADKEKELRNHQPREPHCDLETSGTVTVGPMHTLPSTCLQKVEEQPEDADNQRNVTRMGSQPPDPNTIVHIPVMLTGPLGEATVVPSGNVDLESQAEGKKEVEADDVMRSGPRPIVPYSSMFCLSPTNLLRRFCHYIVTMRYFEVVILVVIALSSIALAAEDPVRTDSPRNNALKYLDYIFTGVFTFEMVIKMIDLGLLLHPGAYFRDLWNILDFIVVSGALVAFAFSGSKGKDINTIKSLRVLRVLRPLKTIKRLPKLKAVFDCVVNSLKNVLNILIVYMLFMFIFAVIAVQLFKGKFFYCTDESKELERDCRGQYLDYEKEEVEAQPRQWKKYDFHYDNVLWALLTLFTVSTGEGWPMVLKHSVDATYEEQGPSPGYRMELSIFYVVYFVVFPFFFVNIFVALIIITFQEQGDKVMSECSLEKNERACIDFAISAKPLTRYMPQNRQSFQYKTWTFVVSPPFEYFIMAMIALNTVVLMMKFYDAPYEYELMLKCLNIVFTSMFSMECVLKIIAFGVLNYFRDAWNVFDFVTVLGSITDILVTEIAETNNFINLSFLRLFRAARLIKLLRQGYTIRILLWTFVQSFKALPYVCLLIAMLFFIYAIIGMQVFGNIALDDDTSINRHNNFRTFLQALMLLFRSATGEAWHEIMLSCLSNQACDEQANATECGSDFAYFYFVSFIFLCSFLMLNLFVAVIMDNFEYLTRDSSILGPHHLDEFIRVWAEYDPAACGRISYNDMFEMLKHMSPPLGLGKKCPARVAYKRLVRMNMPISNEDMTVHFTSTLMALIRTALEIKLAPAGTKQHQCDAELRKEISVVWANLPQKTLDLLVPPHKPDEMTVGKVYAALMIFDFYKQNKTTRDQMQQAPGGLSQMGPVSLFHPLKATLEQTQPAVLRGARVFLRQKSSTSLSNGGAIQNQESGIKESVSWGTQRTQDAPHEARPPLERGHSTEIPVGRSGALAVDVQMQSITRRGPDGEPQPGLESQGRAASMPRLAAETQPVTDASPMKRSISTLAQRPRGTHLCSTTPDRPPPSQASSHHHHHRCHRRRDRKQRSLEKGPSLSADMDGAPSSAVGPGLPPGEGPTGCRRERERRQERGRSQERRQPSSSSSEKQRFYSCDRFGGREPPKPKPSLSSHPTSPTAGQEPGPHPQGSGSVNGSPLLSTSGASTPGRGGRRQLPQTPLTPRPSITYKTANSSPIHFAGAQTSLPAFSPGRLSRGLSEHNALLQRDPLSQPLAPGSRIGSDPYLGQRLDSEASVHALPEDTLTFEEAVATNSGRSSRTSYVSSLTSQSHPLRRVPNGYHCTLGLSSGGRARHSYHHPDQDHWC
- Sequence (P54284 whole entry partner): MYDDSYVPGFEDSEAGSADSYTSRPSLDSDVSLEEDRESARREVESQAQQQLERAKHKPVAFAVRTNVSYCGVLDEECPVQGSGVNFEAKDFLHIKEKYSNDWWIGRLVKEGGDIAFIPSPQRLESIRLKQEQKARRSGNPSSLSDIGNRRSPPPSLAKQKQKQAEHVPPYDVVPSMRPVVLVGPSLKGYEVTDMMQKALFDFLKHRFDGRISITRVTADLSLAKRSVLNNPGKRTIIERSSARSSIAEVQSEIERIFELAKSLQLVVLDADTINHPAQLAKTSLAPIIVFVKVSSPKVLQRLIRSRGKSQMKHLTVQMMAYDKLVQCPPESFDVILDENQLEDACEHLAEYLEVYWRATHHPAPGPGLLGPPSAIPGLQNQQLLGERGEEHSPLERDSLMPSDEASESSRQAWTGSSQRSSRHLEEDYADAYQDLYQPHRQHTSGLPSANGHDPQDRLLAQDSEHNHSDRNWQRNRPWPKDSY
- Sequence (P54289 25-956 partner limits assumed): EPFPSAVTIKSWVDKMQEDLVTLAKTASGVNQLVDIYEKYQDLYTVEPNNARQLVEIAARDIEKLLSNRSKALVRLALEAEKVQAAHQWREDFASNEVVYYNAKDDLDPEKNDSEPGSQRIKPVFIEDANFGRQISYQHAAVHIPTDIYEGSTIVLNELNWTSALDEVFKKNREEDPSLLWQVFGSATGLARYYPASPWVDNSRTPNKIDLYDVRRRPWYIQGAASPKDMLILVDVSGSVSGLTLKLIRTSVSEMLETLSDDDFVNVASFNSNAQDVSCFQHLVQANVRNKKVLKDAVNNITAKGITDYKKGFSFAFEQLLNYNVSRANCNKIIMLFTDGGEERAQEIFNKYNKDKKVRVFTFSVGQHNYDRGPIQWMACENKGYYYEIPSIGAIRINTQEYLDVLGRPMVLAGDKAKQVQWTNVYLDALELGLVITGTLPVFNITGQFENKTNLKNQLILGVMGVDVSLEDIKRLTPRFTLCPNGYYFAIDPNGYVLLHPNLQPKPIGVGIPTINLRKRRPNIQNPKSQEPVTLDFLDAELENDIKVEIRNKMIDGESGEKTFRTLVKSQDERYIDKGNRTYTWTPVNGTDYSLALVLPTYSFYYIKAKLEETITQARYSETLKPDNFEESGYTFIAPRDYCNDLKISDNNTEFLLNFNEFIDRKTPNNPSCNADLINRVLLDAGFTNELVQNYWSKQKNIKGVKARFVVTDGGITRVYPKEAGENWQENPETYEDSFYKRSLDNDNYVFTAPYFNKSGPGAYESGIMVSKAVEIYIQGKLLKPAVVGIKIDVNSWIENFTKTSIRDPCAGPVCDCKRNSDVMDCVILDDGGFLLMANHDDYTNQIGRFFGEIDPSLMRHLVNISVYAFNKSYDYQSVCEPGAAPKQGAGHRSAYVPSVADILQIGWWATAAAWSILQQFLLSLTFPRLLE
- Sequence (P54289 957-1103 partner limits assumed): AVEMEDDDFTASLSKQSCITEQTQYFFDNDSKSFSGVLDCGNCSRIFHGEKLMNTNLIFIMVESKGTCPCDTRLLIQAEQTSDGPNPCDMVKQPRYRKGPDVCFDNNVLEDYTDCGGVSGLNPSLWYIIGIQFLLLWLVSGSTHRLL
- Experiment: Measurement of electrophysiological response (QPatch)
- Conditions: N Type IC50 Data Qpatch Pulse = 1, Pulse = 1; concentration range 0.01-1 μM
pIC50: −log10 of the molar value.
Recorded Metric: pIC50

Which pIC50 value belongs to COc1ncccc1-c1nc(C2(O)CC(C)(C)OC(C)(C)C2)cn1-c1ccc(F)c(C#N)c1 [Cpd 116] ? < 6.00

====

- Tested On: human N-type Ca channel (Homo sapiens)
- Experiment: Measurement of electrophysiological response (QPatch)
- Conditions: N Type IC50 Data Qpatch Pulse = 15, Pulse = 15; concentration range 0.3-10 μM
Recorded Metric: IC50

Examples with their reported IC50 follow.
{"Molecule": "COc1ccccc1-c1nc(C2CC(C)(C)OC(C)(C)C2)cn1-c1ccc(C)nc1 [Cpd 5]", "Recorded Metric": "IC50", "Test Value": "≥ 10 µM"}
{"Molecule": "COc1ccccc1-c1nc(C2CC(C)(C)OC(C)(C)C2)cn1Cc1cncnc1 [Cpd 100]", "Recorded Metric": "IC50", "Test Value": "≥ 10 µM"}
{"Molecule": "COc1ccccc1-c1nc(C2CC(C)(C)OC(C)(C)C2)cn1-c1ccc(C)cn1 [Cpd 6]", "Recorded Metric": "IC50", "Test Value": "≥ 10 µM"}

We next turn to a different molecule, shown below.
Which IC50 value belongs to COc1ccccc1-c1nc(C2(O)CC(C)(C)OC(C)(C)C2)cn1-c1ccc(C#N)c(F)c1 [Cpd 118] ? ≥ 10 µM
